Where do the numbers come from? From patent US4226863A.

Recorded MIC for the following compounds
System: Pseudomonas aeruginosa IID 5142
Test: antimicrobial activity, minimum inhibitory concentration, Pseudomonas aeruginosa IID 5142
Assay type: cell-based
Conditions: IID5142
Reply numerically in µg/mL, unit not repeated.

Before answering, review these 2 worked examples.
>>> df
                                   compound  experimental_endpoint  unit_tag  result_number
0  COc1nc(OC)c2c(O)c(C(=O)NC(C(=O)NC3(OC)C(=O)N4C(C(=O)O)=C(CSc5nncs5)CSC43)c3ccc(O)cc3)cnc2n1 (stereo not drawn)                    MIC     µg/mL           12.5
1  COC1(NC(=O)C(NC(=O)c2nnc(O)nc2O)c2ccc(O)cc2)C(=O)N2C(C(=O)O)=C(CSc3nnnn3C)CSC21 (stereo not drawn)                    MIC     µg/mL           12.5

Ask: What does the record list as MIC for `CO[C@@]1(NC(=O)[C@H](NC(=O)c2cnc3cccnc3c2O)c2ccc(O)cc2)C(=O)N2C(C(=O)O)=C(CSc3nnnn3C)CS[C@@H]21` ?
Reply: 1.56

Ask: Query: MIC; subject: CO[C@@]1(NC(=O)C(NC(=O)c2cncnc2O)c2ccc(O)cc2)C(=O)N2C(C(=O)O)=C(CSc3nnnn3C)CS[C@@H]21 (stereo partly drawn)
Reply: 12.5

Ask: I am curious: what MIC value has been reported for COC1(NC(=O)C(NC(=O)c2cnc3cccnc3c2O)C2=CCC=CC2)C(=O)N2C(C(=O)O)=C(CSc3nnc(C)s3)CSC21 (stereo not drawn) ?
Reply: 3.13

Ask: Name the reported MIC value associated with the compound CO[C@@]1(NC(=O)C(NC(=O)c2cnccc2O)c2ccccc2)C(=O)N2C(C(=O)[O-])=C(C[n+]3ccccc3)CS[C@@H]21 (stereo partly drawn)
Reply: 6.25

---

Please consider the recorded MIC for Proteus vulgaris HX 19 in what follows.
Report the figure in µg/mL without appending any unit label.

Recorded results for 4 molecules are shown here.
molecule	target_or_system	unit_tag	MIC
COc1nc(OC)c2c(O)c(C(=O)NC(C(=O)NC3(OC)C(=O)N4C(C(=O)O)=C(CSc5nncs5)CSC43)c3ccc(O)cc3)cnc2n1 (stereo not drawn)	Proteus vulgaris HX 19	µg/mL	1.56
COC1(NC(=O)C(NC(=O)c2cnc3cncnc3c2O)c2ccc(O)cc2)C(=O)N2C(C(=O)[O-])=C(C[n+]3ccc(C(N)=O)cc3)CSC21 (stereo not drawn)	Proteus vulgaris HX 19	µg/mL	0.78
CO[C@@]1(NC(=O)C(NC(=O)c2cnc3nc(N4CCCC4)cnc3c2O)c2ccc(O)cc2)C(=O)N2C(C(=O)O)=C(CSc3n[nH]c(=S)s3)CS[C@@H]21 (stereo partly drawn)	Proteus vulgaris HX 19	µg/mL	0.39
COC1(NC(=O)C(NC(=O)c2nnc(O)nc2O)c2ccc(O)cc2)C(=O)N2C(C(=O)O)=C(COC(N)=O)CSC21 (stereo not drawn)	Proteus vulgaris HX 19	µg/mL	1.56

Ask: Short answer please: MIC, Proteus vulgaris HX 19, entry CO[C@@]1(NC(=O)C(NC(=O)c2cnccc2O)c2ccccc2)C(=O)N2C(C(=O)[O-])=C(C[n+]3ccccc3)CS[C@@H]21 (stereo partly drawn)
Reply: 1.56

Ask: Report MIC for `CO[C@@]1(NC(=O)[C@H](NC(=O)c2cnc3cccnc3c2O)c2ccc(O)cc2)C(=O)N2C(C(=O)O)=C(COC(N)=O)CS[C@@H]21` tested on Proteus vulgaris HX 19.
Reply: 0.39

Ask: Fill in the recorded MIC for this molecule, with Proteus vulgaris HX 19 as test system: CO[C@@]1(NC(=O)C(NC(=O)c2cnc3nc(SC)ncc3c2O)c2ccc(O)cc2)C(=O)N2C(C(=O)O)=C(CSc3ccc(O)nn3)CS[C@@H]21 (stereo partly drawn)
Reply: 0.78

Ask: Look up MIC with Proteus vulgaris HX 19 for this molecule: CO[C@@]1(NC(=O)C(NC(=O)c2cnc3nc(N4CCNCC4)ncc3c2O)c2ccc(O)cc2)C(=O)N2C(C(=O)O)=C(COC(N)=O)CS[C@@H]21 (stereo partly drawn)
Reply: 0.78

Ask: // lookup MIC | system=Proteus vulgaris HX 19 | key= COC1(NC(=O)C(NC(=O)c2nnc(O)nc2O)c2ccccc2)C(=O)N2C(C(=O)O)=C(COC(C)=O)CSC21 (stereo not drawn)
Reply: 1.56

Ask: Given the entry `CO[C@@]1(NC(=O)[C@H](NC(=O)c2cnc3cccnc3c2O)c2ccccc2)C(=O)N2C(C(=O)O)=C(COC(C)=O)CS[C@@H]21` , what MIC was observed with Proteus vulgaris HX 19?
Reply: 0.39

Ask: Recall the recorded MIC for CCN(CC)c1ccc2ncc(C(=O)NC(C(=O)N[C@]3(OC)C(=O)N4C(C(=O)O)=C(CSc5cnn[nH]5)CS[C@@H]43)c3ccc(O)cc3)c(O)c2n1 (stereo partly drawn) with Proteus vulgaris HX 19 and state it.
Reply: 0.39

Ask: Fill in the recorded MIC for this molecule, with Proteus vulgaris HX 19 as test system: CO[C@@]1(NC(=O)C(NC(=O)c2ccnnc2O)c2ccc(O)cc2)C(=O)N2C(C(=O)O)=C(CSc3nnnn3C)CS[C@@H]21 (stereo partly drawn)
Reply: 0.78
